Assay: log P by HPLC
Assay type: physicochemical
Settings: HPLC, gradient method, acetonitrile/0.1% aqueous phosphoric acid; EEC directive 79/831 Annex V. A8
property: logP
Please give only the number in your answer, with no unit.

1. Cc1nc2nc(Cl)c(-c3ccc(Cl)cc3Cl)c(N3CCCCN3)n2n1	3.35
2. CCc1nc2nc(Cl)c(-c3c(F)cc(F)cc3F)c(N3CCCC3)n2n1	3.29
3. C=C(C)CNc1c(-c2ccc(F)cc2F)c(Cl)nc2nc(C(F)(F)F)nn12	3.75
4. CN(CC1OCCO1)c1c(-c2ccc(F)cc2F)c(Cl)nc2nc(C(F)(F)F)nn12	3.62

# lookup: logP of CN(C)C1CCN(c2c(-c3ccc(F)cc3F)c(Cl)nc3nc(C4CC4)nn23)C1 (centres unmarked)
1.46

# lookup: logP of Fc1cccc(F)c1-c1c(Cl)nc2nc(C3CC3)nn2c1NCC(F)F
2.72

# lookup: logP of Cc1nc2nc(Cl)c(-c3c(F)cc(F)cc3F)c(N3OCCC3C)n2n1 (centres unmarked)
2.93

# lookup: logP of Cc1nc2nc(Cl)c(-c3c(F)cccc3F)c(NOCC(C)C)n2n1
2.88
